Reported composite z-score values follow for various compounds
experiment: binders of probe aFSTL3 on microarray, primary screen, stem cell growth factor project, biochemical, small-molecule microarray, fluorescence 635/667 (AID 1064); settings: higher = more signal;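 also: measures binding of the biotinylated anti-FSTL3 antibody to printed compounds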
OBSERVED PROPERTY: composite z-score

1. C=CCOC(=O)[C@H]1[C@@H]2C(=O)O[C@@H](c3ccccc3)[C@@H](c3ccccc3)N2[C@@H](c2ccc(OCCOC(=O)[C@@H]3C[C@@H]4C(=O)N[C@@H](Cc5ccccc5)C(=O)N4[C@@H]3c3ccc(O)cc3)cc2)[C@]12C(=O)Nc1ccccc12; -0.372
2. C=C(CC1([C@@H](NP(=O)(c2ccccc2)c2ccccc2)[C@H]2C[C@@H]2CCN(C(=O)OCC)S(=O)(=O)c2ccc(C)cc2)CC1)c1ccccc1; 0.0862
3. C=CCOC(=O)[C@H]1[C@@H]2C(=O)O[C@@H](c3ccccc3)[C@@H](c3ccccc3)N2[C@@H](c2ccc(OCCOC(=O)[C@@H]3C[C@@H]4C(=O)N[C@@H](CC(C)C)C(=O)N4[C@@H]3c3ccc(O)cc3)cc2)[C@]12C(=O)Nc1ccc(I)cc12; -0.185
4. CN(C)CCCCNC(=O)[C@H]1C[C@H]2C(=O)NCC(=O)N2[C@H]1c1cccc(OCCO)c1; -0.295
5. CC(C)CNC(=O)[C@@H]1c2ccccc2C(=O)N(Cc2ccccc2Cl)[C@H]1c1ccc(CO)cc1; 0.29
6. C[N+](C)(C)CCCC[C@@H]1NC(=O)[C@H]2C[C@@H](C(=O)NCCCCCNC(=O)CS)[C@@H](c3ccc(O)cc3)N2C1=O; -0.257
7. COCC1=C([C@H](O)CCc2ccccc2)[C@H](CO)n2c(=O)n(-c3ccccc3)c(=O)n2C1; -0.13
8. COCCOC(=O)N1C(=O)[C@@]2(c3cc(C#CCCO)ccc31)[C@H](C(=O)N1CCN(c3ncccn3)CC1)[C@H]1C(=O)O[C@H](c3ccccc3)[C@H](c3ccccc3)N1[C@@H]2c1ccc(O)cc1; -0.782
9. COC(=O)c1ccc([C@H](NC(=O)c2ccccc2)[C@]2(C)C[C@H]2C2CCCCC2)cc1; 0.735
10. C[N+](C)(C)CCCCCCNC(=O)[C@@H]1C[C@@H]2C(=O)N[C@@H](Cc3ccccc3)C(=O)N2[C@@H]1c1ccc(O)cc1; -0.283
11. COc1ccc([Si](C)(C)[C@H]2[C@H](CCO)O[C@@]3(C(=O)N(Cc4ccccc4)c4ccc(N(C=O)c5ccccc5)cc43)[C@@H]2C)cc1; -0.317
12. CC(C)C[C@@H]1NC(=O)C([C@@H](C)OCc2ccccc2)NC(=O)[C@@]23C(=O)N[C@@H](Cc4ccccc4)C2[C@H](C)[C@@]2(C)O[C@H]2C3/C=C/CC/C=C/CNC1=O (stereo partly specified); -0.38
13. CCOC(=O)C1=CC[C@@H](c2ccccc2)N(S(=O)(=O)C[Si](C)(C)C)[C@H]1c1ccccc1; -0.267
14. COCCOC(=O)N1C(=O)[C@@]2(c3ccccc31)[C@H](C(=O)N1CCCCCCC1)[C@H]1C(=O)O[C@H](c3ccccc3)[C@H](c3ccccc3)N1[C@@H]2c1ccc(O)cc1; 3.89
15. Cc1ccc(S[C@]2(C(=O)NCCCN(C)C)CC(=O)N(Cc3ccccc3Cl)[C@@H]2c2ccc(CO)cc2I)cc1; 1.23
16. COCCOC(=O)N1C(=O)[C@@]2(c3cc(C#CC4(O)CCCCCC4)ccc31)[C@H](c1ccc(OCCO)cc1)N1[C@H](c3ccccc3)[C@H](c3ccccc3)OC(=O)[C@H]1[C@@H]2C(=O)N1CCCCCCC1; 1.81
17. Cc1ccccc1C(O)C1C=CC2C(=O)N(c3ccccc3)C(=O)C2N1Nc1ccccc1F (stereo unspecified); 0.397
18. COCCOC(=O)N1C(=O)[C@@]2(c3cc(C#CC4=CCCCC4)ccc31)[C@H](c1ccccc1OCCO)N1[C@H](c3ccccc3)[C@H](c3ccccc3)OC(=O)[C@H]1[C@@H]2C(N)=O; -0.42
19. CC(C)(C)OC(=O)CC[C@]1(C(N)=O)N=C(c2ccc(OCCCO)cc2)O[C@H]1c1ccccc1CN=[N+]=[N-]; 0.68
20. C=CCNC(=O)[C@H]1[C@@H]2C(=O)O[C@@H](c3ccccc3)[C@@H](c3ccccc3)N2[C@@H](c2ccccc2OCCO)[C@]12C(=O)N(C(=O)OCCOC)c1ccccc12; 0.041
21. CCCCC(O)C1C=CC2C(=O)N(C)C(=O)C2N1Nc1ccccc1 (stereo unspecified); 0.645

From: PubChem BioAssay
